# System: HCV GT1b replicon cells
# EXPERIMENT_SUMMARY: HCV Replicon assay, GT1b replicon cells (Luciferase / NEO qPCR)
# Assay type: cell-based
# CONDITION_CONTEXT: Hepatitis C virus, 72 hours incubation, read-out: EC50 against HCV 1b genotype
pEC50: −log10 of the molar value.
pEC50 values by entry
VALUE_KIND: pEC50

MOLECULE: COC(=O)N[C@H](C(=O)N1C[C@@H](C)C[C@H]1c1nc(-c2ccc(-c3ccc(-c4ccc5nc([C@@H]6C[C@H](C)CN6C(=O)[C@@H](NC(=O)OC)C(C)C)[nH]c5c4)c4c3C3(CCCC3)CC4)cc2)c[nH]1)C(C)C [Example 16]
OBS_VALUE: 11.30
//
MOLECULE: COC(=O)N[C@H](C(=O)N1CCC[C@H]1c1ncc(-c2ccc(-c3ccc(-c4cnc([C@@H]5CCCN5C(=O)[C@@H](NC(=O)OC)C(C)C)[nH]4)c4c3C3(CCCO3)CCC4)cc2)[nH]1)C(C)C (stereo partly shown) [Example 51]
OBS_VALUE: 10.07
//
MOLECULE: COC(=O)N[C@H](C(=O)N1C2CCC(C2)[C@H]1c1ncc(-c2ccc(-c3ccc(-c4ccc5nc([C@@H]6C7CCC(C7)N6C(=O)[C@@H](NC(=O)OC)C(C)C)[nH]c5c4)c4c3C3(CCCC3)CC4)cc2)[nH]1)C(C)C (stereo partly shown) [Example 33]
OBS_VALUE: 10.41
//
MOLECULE: COC(=O)N[C@@H](C)C(=O)N1CCC[C@H]1c1ncc(-c2ccc(-c3ccc(-c4cnc([C@@H]5CCCN5C(=O)[C@H](C)NC(=O)OC)[nH]4)c4c3C3(CCCC3)CC4)cc2)[nH]1 [Example 12]
OBS_VALUE: 10.74

###

EC50 values by entry
# Test system: HCV GT1b replicon cells
# EXPERIMENT_SUMMARY: HCV Replicon assay, GT1b replicon cells (Luciferase / NEO qPCR)
# Assay type: cell-based
# CONDITION_CONTEXT: Hepatitis C virus, 72 hours incubation, read-out: EC50 against HCV 1b genotype
VALUE_KIND: EC50 (nM)

MOLECULE: COC(=O)N[C@H](C(=O)N1CCS[C@H]1c1ncc(-c2ccc(-c3ccc(-c4cnc([C@@H]5SCCN5C(=O)[C@@H](NC(=O)OC)C(C)C)[nH]4)c4c3C3(CCCC3)CC4)cc2)[nH]1)C(C)C [Example 28]
OBS_VALUE: 0.667

MOLECULE: COC(=O)N[C@H](C(=O)N1CCC[C@H]1c1ncc(-c2ccc(-c3ccc(-c4ccc5nc([C@@H]6CCCN6C(=O)[C@@H](NC(=O)OC)C(C)C)[nH]c5c4)c4c3CCCC43CCCC3)nc2)[nH]1)C(C)C [Example 45]
OBS_VALUE: 0.034

MOLECULE: COC(=O)N[C@H](C(=O)N1CC2(CC2)C[C@H]1c1ncc(-c2ccc(-c3ccc(-c4ccc(-c5cnc([C@@H]6CC7(CC7)CN6C(=O)[C@@H](NC(=O)OC)C(C)C)[nH]5)cc4)c4c3CCC43CCCC3)cc2)[nH]1)C(C)C [Example 22]
OBS_VALUE: 0.876

MOLECULE: COC(=O)N[C@H](C(=O)N1CCC[C@H]1c1ncc(-c2ccc(-c3ccc(-c4ccc5nc([C@@H]6CCCN6C(=O)[C@@H](NC(=O)OC)c6ccccc6)[nH]c5c4)c4c3C3(CCCC3)CC4)cc2)[nH]1)c1ccccc1 [Example 19]
OBS_VALUE: 0.011

###

# System: HCV GT1b replicon cells
# EXPERIMENT_SUMMARY: HCV Replicon assay, GT1b replicon cells (Luciferase / NEO qPCR)
# Type: cell-based
# CONDITION_CONTEXT: Hepatitis C virus, 72 hours incubation, read-out: EC50 against HCV 1b genotype
VALUE_KIND: EC50 (nM)

COMPOUND: COC(=O)N[C@H](C(=O)N1CCC[C@H]1c1ncc(-c2ccc(-c3ccc(-c4ccc5[nH]c([C@@H]6CCCN6C(=O)[C@@H](NC(=O)OC)C(C)C)nc5c4)c4c3CCC43CCCC3)cc2)[nH]1)C(C)C
OBS_VALUE: 0.029
//
COMPOUND: COC(=O)N[C@H](C(=O)N1CCC[C@H]1c1ncc(-c2ccc(-c3ccc(-c4ccc5nc([C@@H]6CCCN6C(=O)[C@@H](NC(=O)OC)C(C)C)[nH]c5c4)c4c3CCC43CCCC3)c3cnoc23)[nH]1)C(C)C
OBS_VALUE: 0.118
//
COMPOUND: CCC(C)[C@H](NC(=O)OC)C(=O)N1C2CC2C[C@H]1c1ncc(-c2ccc(-c3ccc(-c4ccc(-c5cnc([C@@H]6CC7CC7N6C(=O)[C@@H](NC(=O)OC)C(C)CC)[nH]5)cc4)c4c3CCC43CCCC3)cc2)[nH]1 (stereo partly drawn)
OBS_VALUE: 0.055
//
COMPOUND: COC(=O)N[C@H](C(=O)N1CCC[C@H]1c1ncc(-c2ccc3cc(-c4ccc(-c5cnc([C@@H]6CCCN6C(=O)[C@@H](NC(=O)OC)C(C)C)[nH]5)c5c4C4(CCCC4)CC5)ccc3c2)[nH]1)C(C)C
OBS_VALUE: 0.074
//
COMPOUND: COC(=O)N[C@H](C(=O)N1CCC[C@H]1c1ncc(-c2ccc(-c3ccc(-c4cnc([C@@H]5CC6(CN5C(=O)[C@@H](NC(=O)OC)C(C)C)OCCO6)[nH]4)c4c3C3(CCCC3)CC4)cc2)[nH]1)C(C)C
OBS_VALUE: 0.048
//
COMPOUND: COC(=O)N[C@H](C(=O)N1CCC[C@H]1c1ncc(-c2ccc(-c3ccc(-c4cnc([C@@H]5CCCN5C(=O)[C@@H](NC(=O)OC)C(C)C)[nH]4)c4c3C3(CCCN3C)CC4)cc2)[nH]1)C(C)C (stereo partly drawn)
OBS_VALUE: 0.357
//
COMPOUND: C=C([C@@H](NC(=O)OC)C(C)C)N1CC(C)(C)C[C@H]1c1ncc(-c2ccc(-c3ccc(-c4cnc([C@@H]5CC(C)(C)CN5C(=O)[C@@H](NC(=O)OC)C(C)C)[nH]4)cc3)c3c2CCC32CCCC2)[nH]1
OBS_VALUE: 0.203
//
COMPOUND: COC(=O)NC(C(=O)N1CCCC1c1ncc(-c2ccc(-c3ccc(-c4ccc5[nH]c(C6CCCN6C(=O)C(NC(=O)OC)C(C)C)nc5c4)c4c3C3(CCCC3)CC4)cc2)[nH]1)C(C)C (stereo not drawn)
OBS_VALUE: 0.028
//
COMPOUND: COC(=O)NC(C(=O)N1CCCC1c1ncc(-c2ccc(-c3ccc(-c4ccc5[nH]c(C6CCCN6C(=O)C(NC(=O)OC)C(C)C)nc5c4)c4c3CCC43CCCC3)cc2)[nH]1)C(C)C (stereo not drawn)
OBS_VALUE: 0.036

###

# System: HCV GT1b replicon cells
# EXPERIMENT_SUMMARY: HCV Replicon assay, GT1b replicon cells (Luciferase / NEO qPCR)
# Assay type: cell-based
# CONDITION_CONTEXT: Hepatitis C virus, 72 hours incubation, read-out: EC50 against HCV 1b genotype
pEC50: −log10 of the molar value.

COMPOUND: COC(=O)N[C@H](C(=O)N1C2CC2C[C@H]1c1ncc(-c2ccc(-c3ccc(-c4ccc5nc([C@@H]6CC7CC7N6C(=O)[C@@H](NC(=O)OC)C(C)C)[nH]c5c4)c4c3C3(CCCC3)CC4)cc2)[nH]1)C(C)C (some centres unmarked) [Example 32]
pEC50: 10.11
--
COMPOUND: COC(=O)N[C@H](C(=O)N1CCC[C@H]1c1ncc(-c2ccc(-c3ccc(-c4ccc5nc([C@@H]6CCCN6C(=O)[C@@H](NC(=O)OC)C(C)C)[nH]c5c4)c4c3CCC43CCCC3)c3ccccc23)[nH]1)C(C)C [Example 37]
pEC50: 10.00

###

# Tested on: HCV GT1b replicon cells
# EXPERIMENT_SUMMARY: HCV Replicon assay, GT1b replicon cells (Luciferase / NEO qPCR)
# Assay type: cell-based
# CONDITION_CONTEXT: Hepatitis C virus, 72 hours incubation, read-out: EC50 against HCV 1b genotype
# Experimental: An HCV Replicon assay was utilized in the present invention, and was prepared, developed and validated as described in Science, 1999, 285 (5424), 110-3 and J. Virol., 2003, 77 (5), 3007-19. HCV GT1a, GT1b and GT2a replicon cells were used to test the currently described compound series as well as wild-type cells HCV 1b and resistant cells Y93H, L31F, P32L and 1302V. […]
pEC50: −log10 of the molar value.
VALUE_KIND: pEC50

COMPOUND: COC(=O)N[C@H](C(=O)N1CCC[C@H]1c1nc(-c2ccc(-c3ccc(-c4ccc(-c5cnc([C@@H]6CCCN6C(=O)[C@@H](NC(=O)OC)C(C)C)[nH]5)cc4)c4c3CCC43CCCC3)cc2)c[nH]1)C(C)C
SYSTEM_TESTED: HCV GT1b replicon cells
VALUE_KIND: pEC50
OBS_VALUE: 9.68
//
COMPOUND: COC(=O)N[C@H](C(=O)N1CCC[C@H]1c1ncc(C#Cc2ccc(C#Cc3cnc([C@@H]4CCCN4C(=O)[C@@H](NC(=O)OC)C(C)C)[nH]3)c3c2CCC32CCCC2)[nH]1)C(C)C
SYSTEM_TESTED: HCV GT1b replicon cells
VALUE_KIND: pEC50
OBS_VALUE: 9.97
//
COMPOUND: COC(=O)N[C@H](C(=O)N1CCC[C@H]1C(=O)Nc1ccc(-c2ccc(-c3ccc(NC(=O)[C@@H]4CCCN4C(=O)[C@@H](NC(=O)OC)C(C)C)cc3)c3c2CCC32CCCC2)cc1)C(C)C
SYSTEM_TESTED: HCV GT1b replicon cells
VALUE_KIND: pEC50
OBS_VALUE: 8.99
//
COMPOUND: COC(=O)N[C@H](C(=O)N1CCC[C@H]1c1ncc(-c2ccc(-c3ccc(-c4ccc5[nH]c([C@@H]6CCCN6C(=O)[C@@H](NC(=O)OC)C(C)C)nc5c4)c4c3C3(CCCC3)CC4)cc2)[nH]1)C(C)C
SYSTEM_TESTED: HCV GT1b replicon cells
VALUE_KIND: pEC50
OBS_VALUE: 10.49
//
COMPOUND: COC(=O)NC(C(=O)N1CCCC1c1nc(-c2ccc(-c3ccc(-c4c[nH]c(C5CCCN5C(=O)C(NC(=O)OC)C(C)C)n4)c4c3C3(CCCC3)CC4)cc2)c[nH]1)C(C)C (centres unmarked)
SYSTEM_TESTED: HCV GT1b replicon cells
VALUE_KIND: pEC50
OBS_VALUE: 10.36
